assayMethodText: Caco-2 permeability study (Examples 1-4)
cond: Caco-2, Papp BA, Table 3, n = 3
observationType: Papp B→A (×10⁻⁶ cm/s)

* CCCCCCOC(=O)N=C(NCCC[C@@H]1NC(=O)[C@@H](C(C)C)N(C)C(=O)[C@H](C)N(C)C(=O)[C@H](C)NC(=O)[C@H](CC(=O)OC)NC(=O)CNC1=O)NC(=O)OCCCCCC [peptide 29P, c(*vR(Hoc)2GD(OMe)A*A)] | 10.7

----------
assayMethodText: Caco-2 permeability study (Examples 1-4)
cond: Caco-2, Caco-2 Papp A-to-B, A-to-B; text values (FIGS. 4, 5, 7, 17-20), unit inferred
observationType: Papp A→B (×10⁻⁶ cm/s)

• CCCCCCOC(=O)N=C(NCCC[C@@H]1NC(=O)[C@@H](C(C)C)N(C)C(=O)[C@H](C)N(C)C(=O)[C@H](C)NC(=O)[C@H](CC(=O)OC)NC(=O)CNC1=O)NC(=O)OCCCCCC [peptide 29P, c(*vR(Hoc)2GD(OMe)A*A)] = 0.8

----------
cond: PAMPA, pH 7.4
Where a SMILES comes first, the peptide text is derived from it.
observationType: Permeability, Mean

- CC(C)C[C@@H]1NC(=O)CNC(=O)[C@@H]2CCCN2C(=O)[C@@H]2CCCN2C(=O)[C@H](CC(C)C)NC(=O)[C@H](CC(=O)O)NC(=O)CNC(=O)[C@H](CCCNC(=N)N)NC1=O [FRX068] (cyclo(RGDLPPGL)): <−7 Log10[10^−6 cm/s]

----------
assayMethodText: Caco-2 A-B and B-A permeability with/without verapamil (Example 6)
cond: human, Caco-2, pH 7.4
observationType: efflux ratio at 90 min, 10 µM

• CC(C)[C@@H]1C(=O)N[C@@H](CCCNC(=N)N)C(=O)NCC(=O)N[C@@H](CC(=O)O)C(=O)N[C@@H](C)C(=O)N(C)[C@@H](C)C(=O)N1C [peptide 29, c(*vRGDA*A)] = 0.4

----------
assayMethodText: in vitro
cond: human, Caco-2, Papp AB
observationType: Papp A→B at 150 min

* COCCc1ccc(OCC(O)CNC(C)C)cc1 (stereo not shown) | 1.89 ×10⁻⁶ cm/s

----------
cond: Caco-2, Papp (BA), replicate 1
Where a SMILES comes first, the peptide text is derived from it. [ ]: non-standard residue; d: D form. Arg(ω,ω'-(C6H13OCO)2) = CCCCCCOC(=O)N=C(NCCC[C@H](N)C(=O)O)NC(=O)OCCCCCC
List of Papp B→A values.
observationType: Papp B→A (×10⁻⁶ cm/s)

• CC(C)C[C@@H]1NC(=O)CNC(=O)[C@@H]2CCCN2C(=O)[C@@H]2CCCN2C(=O)[C@H](CC(C)C)NC(=O)[C@H](CC(=O)O)NC(=O)CNC(=O)[C@H](CCCNC(=N)N)NC1=O [FRX068] (cyclo(RGDLPPGL)) = 0.3
• C[C@@H]1NC(=O)[C@H](C)NC(=O)[C@@H](C)N(C)C(=O)[C@H](C)N(C)C(=O)[C@H](C)NC(=O)[C@H](C)NC1=O = 0.1
• CC(C)C[C@@H]1NC(=O)[C@H](CC(=O)O)NC(=O)CNC(=O)[C@H](CCCNC(=N)N)NC(=O)[C@H](Cc2ccccc2)NC(=O)[C@@H]2CCCN2C(=O)[C@@H]2CCCN2C(=O)[C@H](CC(C)C)NC(=O)[C@H](C)NC1=O [OM1186] (cyclo(RGDLALPPF)) = 0.1
• CCCCCCOC(=O)N=C(NCCC[C@@H]1NC(=O)[C@H](Cc2ccccc2)NC(=O)[C@@H]2CCCN2C(=O)[C@@H]2CCCN2C(=O)[C@H](CC(C)C)NC(=O)[C@H](C)NC(=O)[C@H](CC(C)C)NC(=O)[C@H](CC(=O)OC)NC(=O)CNC1=O)NC(=O)OCCCCCC [AR372] (cyclo(ALPPF[Arg(ω,ω'-(C6H13OCO)2)]GD(OMe)L)) = 0.5
